Entries and their cytotoxicity at 70.5 h values follow.
Assay details: Human HepG2 cell viability assay in 384 well format
Assay type: toxicity, cell-based
Design: dose 125 nL, time 70.5 hour; concentration not given beside the values
Assay conditions: HepG2 cells, read-out: Inhibition

>  <Compound>
CC(C)Oc1ccc(CNC(=O)CN(C)S(C)(=O)=O)cc1F

>  <cytotoxicity at 70.5 h (%)>
-6.43

$$$$
>  <Compound>
CCN1CC2(CCN(C(=O)c3nc4cc(C)ccn4c3F)CC2)CC1=O

>  <cytotoxicity at 70.5 h (%)>
24.7

$$$$
>  <Compound>
Cc1ncc(CN2CCC(N(C)Cc3noc(C4CC4)n3)C2)s1 (stereo unspecified)

>  <cytotoxicity at 70.5 h (%)>
19

$$$$
>  <Compound>
O=C(CC1CC1)N[C@@H]1CN(C(=O)c2cccs2)C[C@@H]2CCCO[C@@H]21

>  <cytotoxicity at 70.5 h (%)>
-7.28

$$$$
>  <Compound>
Cc1nc(C(C)(C)NCc2nnc(C(C)C)o2)sc1C

>  <cytotoxicity at 70.5 h (%)>
1.69

$$$$
>  <Compound>
O=C(NCC1CC1)[C@H]1C[C@@H]2CCN(Cc3ccc4c(c3)OCO4)C[C@@H]2O1

>  <cytotoxicity at 70.5 h (%)>
-11.6

$$$$
>  <Compound>
O=C(c1ccoc1)N1CCOCC2(CCN(C3CCOCC3)C2)C1 (stereo unspecified)

>  <cytotoxicity at 70.5 h (%)>
-2.14

$$$$
>  <Compound>
Cn1ccnc1CNCC1CCCN1c1cccnn1 (stereo unspecified)

>  <cytotoxicity at 70.5 h (%)>
-4.3

$$$$
>  <Compound>
CN1CCN(c2ccccc2NC(=O)c2ccco2)CC1

>  <cytotoxicity at 70.5 h (%)>
-6.77

$$$$
>  <Compound>
Cc1noc(C)c1CN1CCCC1c1c(C)nn(C)c1Cl (stereo unspecified)

>  <cytotoxicity at 70.5 h (%)>
-2.34

$$$$
>  <Compound>
CC(C)(C)c1cc(C[C@H]2CNCC[C@H]2CC(=O)NC2CCCCC2)no1

>  <cytotoxicity at 70.5 h (%)>
2.18

$$$$

* * *

Entries and their cytotoxicity at 70.5 h values follow.
Assay details: Human HepG2 cell viability assay in 384 well format
Type: toxicity, cell-based
Set-up: dose 125 nL, time 70.5 hour; concentration not given beside the values
Assay conditions: HepG2 cells, read-out: Inhibition

>  <Compound>
Cc1cccc(C(=O)NCc2ccc(CS(N)(=O)=O)cc2)n1

>  <Result unit>
%

>  <cytotoxicity at 70.5 h>
-16.5

$$$$
>  <Compound>
Cc1cncc(Oc2ccc(CN)cc2)n1

>  <Result unit>
%

>  <cytotoxicity at 70.5 h>
-10.6

$$$$
>  <Compound>
CCC(Oc1ccc(N(C)S(C)(=O)=O)cc1)C(=O)NC (stereo not given)

>  <Result unit>
%

>  <cytotoxicity at 70.5 h>
-1.39

$$$$
>  <Compound>
Cc1nnc(C2CCN(c3ccc(F)cc3)CC2)o1

>  <Result unit>
%

>  <cytotoxicity at 70.5 h>
-9.58

$$$$
>  <Compound>
CC(c1ccco1)N(C)Cc1cccc(C(=O)Nc2nccn2C)c1 (stereo not given)

>  <Result unit>
%

>  <cytotoxicity at 70.5 h>
-5.04

$$$$

* * *

Assay details: Human HepG2 cell viability assay in 384 well format
Assay type: toxicity, cell-based
Set-up: dose 125 nL, time 70.5 hour; concentration not given beside the values
Assay conditions: HepG2 cells, read-out: Inhibition
Measured endpoint: cytotoxicity at 70.5 h (%)

>  <Compound>
COCCNC(=O)Cn1c(-c2cccc(Cl)c2)nc(C)c(CCO)c1=O

>  <Result unit>
%

>  <Value>
0.393

$$$$
>  <Compound>
CC(C)CN1CCC2(CCN(Cc3ccoc3)CC2)C1=O

>  <Result unit>
%

>  <Value>
-12.7

$$$$
>  <Compound>
Cc1ccc(NC(=O)CN[C@H](C(N)=O)C(C)C)cc1F

>  <Result unit>
%

>  <Value>
13.9

$$$$
>  <Compound>
Cc1cc(Br)c(O)c(-c2nc(N3CCCCC3)sc2C)c1

>  <Result unit>
%

>  <Value>
13.1

$$$$
>  <Compound>
CCCN(CC(=O)NC)C(=O)c1ccc(-c2nc(C)cs2)cc1

>  <Result unit>
%

>  <Value>
-10.1

$$$$
>  <Compound>
O=C(c1ccco1)N1C[C@H]2CCCN(Cc3ccncc3)[C@H]2C1

>  <Result unit>
%

>  <Value>
-3.44

$$$$
>  <Compound>
CN(C)C(=O)C1CCCN1CCCNC(=O)c1cccc2[nH]ncc12 (centres undefined)

>  <Result unit>
%

>  <Value>
12.2

$$$$
>  <Compound>
CCOc1ncccc1NC(=O)N1CCCC(CNC(N)=O)C1 (centres undefined)

>  <Result unit>
%

>  <Value>
-8.62

$$$$
>  <Compound>
Cc1cc(CN2CCN(C(=O)CCc3ccco3)CC2)on1

>  <Result unit>
%

>  <Value>
-9.48

$$$$
>  <Compound>
CN1CCCN(C(=O)c2csc3nc(-c4ccc(Cl)cc4)cn23)CC1

>  <Result unit>
%

>  <Value>
-23

$$$$
>  <Compound>
COc1ccc(C(C)NCc2cscn2)cc1Cn1cccn1 (centres undefined)

>  <Result unit>
%

>  <Value>
-7.35

$$$$
>  <Compound>
CNc1ncc(C(=O)N2CCCC(CO)(CCCOC)C2)cn1 (centres undefined)

>  <Result unit>
%

>  <Value>
4.14

$$$$
>  <Compound>
COCCN1CCc2ncnc(NC(C)C)c2CC1

>  <Result unit>
%

>  <Value>
-5.11

$$$$
>  <Compound>
CNS(=O)(=O)CCCN1CCN(C(C)c2cccnc2)CC1 (centres undefined)

>  <Result unit>
%

>  <Value>
18.3

$$$$

* * *

Entries and their cytotoxicity at 70.5 h values follow.
Assay details: Human HepG2 cell viability assay in 384 well format
Type: toxicity, cell-based
Parameters: dose 125 nL, time 70.5 hour; concentration not given beside the values
Assay conditions: HepG2 cells, read-out: Inhibition

>  <Molecule>
CCCS(=O)(=O)NCc1cccnc1OCc1ccccc1

>  <Result unit>
%

>  <cytotoxicity at 70.5 h>
-7.41

$$$$
>  <Molecule>
COc1cccc(CCC(=O)N2CCCCC2Cn2cccn2)c1 (stereo not drawn)

>  <Result unit>
%

>  <cytotoxicity at 70.5 h>
-11.2

$$$$
>  <Molecule>
Fc1ccc(CN[C@@H]2COC[C@H]2c2ccc(F)cc2)cc1

>  <Result unit>
%

>  <cytotoxicity at 70.5 h>
0.602

$$$$
>  <Molecule>
Cn1ncnc1NCc1ccc(Cl)cc1

>  <Result unit>
%

>  <cytotoxicity at 70.5 h>
-9.65

$$$$
>  <Molecule>
CN1CCN(C2CCN(Cc3ccc(Cl)cc3)CC2)C1=O

>  <Result unit>
%

>  <cytotoxicity at 70.5 h>
-2.16

$$$$
>  <Molecule>
O=C(NCCn1ccnc1)c1ccn(-c2ccc(F)cc2)n1

>  <Result unit>
%

>  <cytotoxicity at 70.5 h>
-2.38

$$$$
>  <Molecule>
CN1CCCN(c2nccc(-c3c[nH]nc3-c3ccncc3)n2)CC1

>  <Result unit>
%

>  <cytotoxicity at 70.5 h>
-3.42

$$$$
>  <Molecule>
Cc1nc(CN2CCC(N(C)Cc3noc(C4CC4)n3)C2)oc1C (stereo not drawn)

>  <Result unit>
%

>  <cytotoxicity at 70.5 h>
4.91

$$$$

* * *

Assay details: Human HepG2 cell viability assay in 384 well format
Assay type: toxicity, cell-based
Set-up: dose 125 nL, time 70.5 hour; concentration not given beside the values
Assay conditions: HepG2 cells, read-out: Inhibition
Entries and their cytotoxicity at 70.5 h values follow.

>  <Compound>
CC(=O)N(C)CCCc1cc(-c2ccccc2)no1

>  <Result unit>
%

>  <cytotoxicity at 70.5 h>
-4.09

$$$$
>  <Compound>
Cc1cnc(-c2nc(O)c3c(n2)CN(C(=O)CC2CCCC2)CC3)cn1

>  <Result unit>
%

>  <cytotoxicity at 70.5 h>
-2.15

$$$$
>  <Compound>
CCN(CC)C(CNS(=O)(=O)NCc1ccccc1)c1ccco1 (stereo unspecified)

>  <Result unit>
%

>  <cytotoxicity at 70.5 h>
-2.25

$$$$
>  <Compound>
COc1cc(C(=O)N(Cc2ccco2)C2CC2)cc(OC)c1OC

>  <Result unit>
%

>  <cytotoxicity at 70.5 h>
23.7

$$$$
>  <Compound>
Cc1cnn(CCNCC(O)COc2c(Cl)cccc2Cl)c1 (stereo unspecified)

>  <Result unit>
%

>  <cytotoxicity at 70.5 h>
-4.22

$$$$
>  <Compound>
CC(=O)NCC1CCC2(CCN(c3ncc(C(C)=O)c(C)n3)CC2)O1 (stereo unspecified)

>  <Result unit>
%

>  <cytotoxicity at 70.5 h>
-2.5

$$$$
